Biological target: Major prion protein (Homo sapiens) (UniProt P04156)
Test: reduces human prion protein on the cell surface, primary screen, cell-based, TR-FRET (AID 720596); further: 0% = median of the test wells and 100% = reference compound wells
Details: cell surface PrPC, TR-FRET read-out; at 13.8 µM; active compounds read high
Hit rate of the full screen: of about 370,000 compounds, about 1,600 (0.43%) were called active. Only a selection was taken, and actives are over-represented in it overall.
QUANTITY_MEASURED: inhibition (%)

{"SMILES_ENTRY": "O=C(Cn1nnc(-c2ccccc2)n1)NC(=O)NC1CCCC1", "QUANTITY_MEASURED": "inhibition", "MEASUREMENT_UNITS": "%", "REPORTED": 1.46}
{"SMILES_ENTRY": "COc1ccc(-c2cc(-c3nnc(SCc4ccc([N+](=O)[O-])cc4)n3N)[nH]n2)cc1", "QUANTITY_MEASURED": "inhibition", "MEASUREMENT_UNITS": "%", "REPORTED": 0.13}
{"SMILES_ENTRY": "O=C(O)CCc1nc2cc(Cl)ccc2n(Cc2ccccc2)c1=O", "QUANTITY_MEASURED": "inhibition", "MEASUREMENT_UNITS": "%", "REPORTED": -3.72}
{"SMILES_ENTRY": "Cc1sc2ncnc(SCC(=O)Nc3ccc(CN4CCCC4)cc3)c2c1C", "QUANTITY_MEASURED": "inhibition", "MEASUREMENT_UNITS": "%", "REPORTED": 33.7}
{"SMILES_ENTRY": "CC/C(=N\\O)C(C)(C)/[N+]([O-])=C/c1ccc(Br)cc1", "QUANTITY_MEASURED": "inhibition", "MEASUREMENT_UNITS": "%", "REPORTED": 10.7}
{"SMILES_ENTRY": "Cc1ccc(NS(=O)(=O)c2cccs2)cc1S(=O)(=O)N1CCCCCC1", "QUANTITY_MEASURED": "inhibition", "MEASUREMENT_UNITS": "%", "REPORTED": 2.21}
{"SMILES_ENTRY": "COc1ccc(OC)c(-n2c(=S)[nH]c3cc(C(=O)N4CCCCC4)ccc3c2=O)c1", "QUANTITY_MEASURED": "inhibition", "MEASUREMENT_UNITS": "%", "REPORTED": 2.99}
{"SMILES_ENTRY": "COc1cc2[nH]c(=S)n(Cc3ccc(C)o3)c(=O)c2cc1OC", "QUANTITY_MEASURED": "inhibition", "MEASUREMENT_UNITS": "%", "REPORTED": -2}
{"SMILES_ENTRY": "Cc1nc(/N=C(\\N)NC(=O)NC2CCCCC2)nc2ccccc12", "QUANTITY_MEASURED": "inhibition", "MEASUREMENT_UNITS": "%", "REPORTED": 27.6}

Cited source for all entries: PubChem BioAssay AID720596
